Data origin, for the record: the supplement of paper PMC9262897

growth listing for selected compounds.
Tested on: E. coli TESEC Mtb Alr
protocol: growth (OD600 after 10 h); higher = more growth (less inhibition)
protocol_conditions: arabinose 100000 nM; compound 0.1 mM; raw OD600 reference: median of DMSO wells 0.201, cell-free background 0.041
Structures can show the parent of a compound that is named as a salt.

# compound, target_or_test_system, growth
measured = [
    ("O=C(Nc1ccc([N+](=O)[O-])cc1Cl)c1cc(Cl)ccc1O [Niclosamide]", "E. coli TESEC Mtb Alr", 0.0408),
    ("Cc1c(Nc2ncccc2C(=O)O)cccc1C(F)(F)F", "E. coli TESEC Mtb Alr", 0.163),
    ("CC1CS(=O)(=O)CCN1/N=C/c1ccc([N+](=O)[O-])o1 (stereo not drawn)", "E. coli TESEC Mtb Alr", 0.0564),
    ("CS(=O)(=O)c1ccc([C@@H](O)[C@@H](CF)NC(=O)C(Cl)Cl)cc1", "E. coli TESEC Mtb Alr", 0.0412),
    ("NS(=O)(=O)c1cc2c(cc1C(F)(F)F)NCNS2(=O)=O [Hydroflumethiazide]", "E. coli TESEC Mtb Alr", 0.239),
    ("N=C(N)N1CCc2ccccc2C1 [Debrisoquin sulfate]", "E. coli TESEC Mtb Alr", 0.222),
    ("CCCCCCC[N+](CC)(CC)CCCCc1ccc(Cl)cc1 [Clofilium tosylate]", "E. coli TESEC Mtb Alr", 0.0398),
    ("O=C(O)Cc1ccc(-c2ccccc2)cc1", "E. coli TESEC Mtb Alr", 0.163),
    ("C[C@]12CCC(=O)C=C1C=C[C@@H]1[C@@H]2CC[C@@]2(C)[C@H]1CC[C@@]21CCC(=O)O1", "E. coli TESEC Mtb Alr", 0.131),
    ("CC(=O)Nc1ccc(CC(=O)O)cc1", "E. coli TESEC Mtb Alr", 0.198),
    ("C#C[C@]1(O)CC[C@H]2[C@@H]3CCC4=CCCC[C@@H]4[C@H]3CC[C@@]21C", "E. coli TESEC Mtb Alr", 0.18),
    ("CCCCC[C@H](O)/C=C/[C@H]1[C@H](O)CC(=O)[C@@H]1CCCCCCC(=O)O", "E. coli TESEC Mtb Alr", 0.176),
    ("Cc1[nH]cnc1CN1CCc2c(c3ccccc3n2C)C1=O [Alosetron hydrochloride]", "E. coli TESEC Mtb Alr", 0.225),
    ("CCn1cc(C(=O)O)c(=O)c2cc(F)c(N3CCNC(C)C3)c(F)c21 (stereo not drawn) [Lomefloxacin hydrochloride]", "E. coli TESEC Mtb Alr", 0.0417),
    ("Cc1cc(=O)n(-c2ccccc2)n1C [Antipyrine]", "E. coli TESEC Mtb Alr", 0.221),
    ("Cc1cc2c(s1)Nc1ccccc1N=C2N1CCN(C)CC1", "E. coli TESEC Mtb Alr", 0.183),
    ("OCCN1CCN(CC/C=C2/c3ccccc3Sc3ccc(Cl)cc32)CC1 [Zuclopenthixol dihydrochloride]", "E. coli TESEC Mtb Alr", 0.198),
    ("COc1c(N2CCNC(C)C2)c(F)cc2c(=O)c(C(=O)O)cn(C3CC3)c12 (stereo not drawn)", "E. coli TESEC Mtb Alr", 0.0407),
]
